Attribute: Selectivity for ROCK2 over ROCK1 (IC50 ROCK1 / IC50 ROCK2)
- target desc: GST-tagged human ROCK2 catalytic domain 1-553 (Homo sapiens (Human))
- Sequence (O75116 1-553): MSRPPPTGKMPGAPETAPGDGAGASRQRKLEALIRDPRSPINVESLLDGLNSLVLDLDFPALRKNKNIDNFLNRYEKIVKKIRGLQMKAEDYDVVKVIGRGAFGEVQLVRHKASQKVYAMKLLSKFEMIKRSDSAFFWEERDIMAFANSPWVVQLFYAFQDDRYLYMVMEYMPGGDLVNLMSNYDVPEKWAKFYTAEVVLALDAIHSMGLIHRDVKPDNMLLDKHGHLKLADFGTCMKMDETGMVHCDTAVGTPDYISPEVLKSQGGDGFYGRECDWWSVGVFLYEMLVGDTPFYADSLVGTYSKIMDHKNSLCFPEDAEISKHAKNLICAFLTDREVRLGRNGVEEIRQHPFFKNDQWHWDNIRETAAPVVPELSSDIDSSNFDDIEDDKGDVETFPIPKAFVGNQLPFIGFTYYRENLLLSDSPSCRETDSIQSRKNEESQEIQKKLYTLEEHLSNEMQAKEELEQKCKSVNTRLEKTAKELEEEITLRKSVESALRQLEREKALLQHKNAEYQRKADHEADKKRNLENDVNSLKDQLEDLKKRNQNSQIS
- measurement protocol: Inhibition of Rho-associated protein kinase isoform 2 (LANCE Ultra ULight-CREBtide FRET kinase assay)
- Assay type: biochemical
- reported conditions: selectivity ROCK2 vs ROCK1

// worked examples, Selectivity for ROCK2 over ROCK1 (IC50 ROCK1 / IC50 ROCK2) included
{"molecule": "Clc1c(Nc2nnc(-c3cccn4cc(C5CCCN5)nc34)s2)ccc2[nH]ncc12 (stereo not shown) [Example 50G]", "result": "<5"}
{"molecule": "CC(=O)Nc1cc(CN2CCN(C)CC2)cc(-c2nnc(Nc3ccc4[nH]ncc4c3Cl)s2)c1.O=C(O)C(F)(F)F [Example 48B]", "result": ">50"}
{"molecule": "Brc1cc(-c2nnc(Nc3ccc4[nH]ncc4c3)s2)c2nccn2c1 [Example 52F]", "result": ">100"}

Now look at this one.
Fill in the blank: the reported Selectivity for ROCK2 over ROCK1 (IC50 ROCK1 / IC50 ROCK2) of `O=C(Nc1cccc(-c2nnc(Nc3ccc4[nH]ncc4c3)s2)c1)c1cn[nH]c1` is ____.
>100

----------
Attribute: IC50
- target desc: GST-tagged human ROCK2 catalytic domain 1-553 (Homo sapiens (Human))
- measurement protocol: Inhibition of Rho-associated protein kinase isoform 2 (LANCE Ultra ULight-CREBtide FRET kinase assay)
- Assay type: biochemical
- reported conditions: 30 μM was the highest concentration analyzed

{"compound": "CCCOC(=O)Nc1cc(-c2nnc(Nc3ccc4[nH]ncc4c3Cl)s2)ccn1.O=C(O)C(F)(F)F [Example 35F]", "IC50": "< 1 µM"}
{"compound": "CC(C(=O)Nc1cc(-c2nnc(Nc3ccc4[nH]ncc4c3Cl)s2)ccn1)c1ccc(F)cc1 (centres unmarked)", "IC50": "< 1 µM"}
{"compound": "COc1ccc(C(=O)Nc2cccc(-c3nnc(Nc4ccc5[nH]ncc5c4Cl)s3)c2)cc1 [Example 35BS]", "IC50": "< 1 µM"}

Fill in the blank: the reported IC50 of Cc1cccc(-c2cccc(-c3nnc(Nc4ccc5[nH]ncc5c4Cl)s3)c2)n1 [Example 75R] is ____.
< 1 µM

Fill in the blank: the reported IC50 of `CCS(=O)(=O)Nc1cccc(-c2nnc(Nc3ccc4[nH]ncc4c3)s2)c1` is ____.
1 to 15 µM

Fill in the blank: the reported IC50 of `NCCS(=O)(=O)Nc1cccc(-c2nnc(Nc3ccc4[nH]ncc4c3)s2)c1` is ____.
1 to 15 µM

Fill in the blank: the reported IC50 of O=C(Cc1ccc(F)cc1)Nc1cccc(-c2nnc(Nc3ccc4[nH]ncc4c3Cl)s2)c1 [Example 35BO] is ____.
< 1 µM

Fill in the blank: the reported IC50 of CC(C)(C)CC(=O)Nc1cccc(-c2nnc(Nc3ccc4[nH]ncc4c3Cl)s2)c1 [Example 35M] is ____.
< 1 µM

----------
- target desc: GST-tagged human ROCK1 catalytic domain 1-477 (Homo sapiens (Human), UniProt Q13464)
- Sequence (Q13464 1-477): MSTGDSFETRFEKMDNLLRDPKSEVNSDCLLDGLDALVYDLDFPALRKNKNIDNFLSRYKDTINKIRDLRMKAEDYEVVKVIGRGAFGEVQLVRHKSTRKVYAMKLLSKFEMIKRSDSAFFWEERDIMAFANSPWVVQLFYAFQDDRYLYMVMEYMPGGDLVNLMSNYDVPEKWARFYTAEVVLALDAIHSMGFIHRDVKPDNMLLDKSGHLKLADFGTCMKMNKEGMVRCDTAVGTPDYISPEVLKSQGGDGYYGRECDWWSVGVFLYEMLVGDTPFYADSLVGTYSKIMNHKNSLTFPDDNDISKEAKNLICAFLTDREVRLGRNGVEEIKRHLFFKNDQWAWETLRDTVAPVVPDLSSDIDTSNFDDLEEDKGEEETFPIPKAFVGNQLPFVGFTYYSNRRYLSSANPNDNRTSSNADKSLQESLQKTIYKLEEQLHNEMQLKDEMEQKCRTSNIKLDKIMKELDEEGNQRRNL
- measurement protocol: Inhibition of Rho-associated protein kinase isoform 1 (LANCE Ultra ULight-CREBtide FRET kinase assay)
- Type: biochemical
- reported conditions: 30 μM was the highest concentration analyzed
property measured: IC50

{"molecule": "Cn1c(C2CCOCC2)nc2c(-c3nnc(Nc4ccc5[nH]ncc5c4)s3)cccc21 [Example 56F]", "IC50": "> 30 µM"}
{"molecule": "CC(C)NC(=O)COc1cncc(-c2nnc(Nc3ccc4[nH]ncc4c3)s2)c1 [Example A-7]", "IC50": "> 30 µM"}
{"molecule": "Cc1coc(-c2cc(-c3nnc(Nc4ccc5[nH]ncc5c4Cl)s3)ccn2)n1 [Example 40]", "IC50": "< 1 µM"}
{"molecule": "O=C(Cc1ccc(F)cc1)Nc1cccc(-c2nnc(Nc3ccc4[nH]ncc4c3Cl)s2)c1 [Example 35BO]", "IC50": "< 1 µM"}
{"molecule": "CC(C)NC(=O)COc1cccc(-c2nnc(Nc3ccc4[nH]ncc4c3)s2)c1 [Example 35CP]", "IC50": "15 to 30 µM"}
{"molecule": "Cn1cc(C(=O)Nc2cccc(-c3nnc(Nc4ccc5[nH]ncc5c4Cl)s3)c2)cn1 [Example A-11]", "IC50": "> 30 µM"}
{"molecule": "CC(=O)Nc1cccc(-c2nnc(N(C)c3ccc4[nH]ncc4c3)s2)c1 [Example 54D]", "IC50": "1 to 15 µM"}
{"molecule": "O=[N+]([O-])c1cccc(-c2nnc(Nc3ccc4[nH]ncc4c3)s2)c1 [Example A-45]", "IC50": "1 to 15 µM"}

Fill in the blank: the reported IC50 of CC1CCCCC1C(=O)Nc1cccc(-c2nnc(Nc3ccc4[nH]ncc4c3Cl)s2)c1 (centres unmarked) [Example 35H] is ____.
1 to 15 µM

Fill in the blank: the reported IC50 of O=C(O)c1cccc(-c2nnc(Nc3ccc4[nH]ncc4c3)s2)c1 [Example 35CL] is ____.
15 to 30 µM
